Biological target: T1, CDYL2 chromodomain (residues 1-75), C-terminal His-tag (UniProt Q8N8U2 1-75)
T1 sequence (looked up): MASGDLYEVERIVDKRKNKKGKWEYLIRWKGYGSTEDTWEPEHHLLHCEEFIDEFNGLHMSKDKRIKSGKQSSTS
Assay: AlphaScreen or HTRF
* marks the point of attachment. 4‑piperidine cap = not defined here; cyclohexyl = C1CCC(*)CC1
Observable: IC50 (nM)

[[record]]
binder = "{4‑piperidine cap}-FAFKS-OMe (reading uncertain; also: lysine mimetic with a piperidine substituent) [UNC6127]"
unit_annotation = "nM"
numeric_value = 200

[[record]]
binder = "{4‑piperidine cap}-FAFKS-OMe (reading uncertain; also: Lys4: lysine mimetic with a tetrahydropyran substituent) [UNC6218]"
unit_annotation = "nM"
numeric_value = 100

[[record]]
binder = "{4‑piperidine cap}-FAFK(cyclohexyl)S-OMe (reading uncertain; also: Lys4: lysine mimetic with a cyclohexyl substituent) [UNC6217]"
unit_annotation = "nM"
numeric_value = 70


(1) FAFKS (N-terminal 4-piperidine cap; lysine mimetic with a methyl-cyclopentyl amine; C-terminal methyl ester) [UNC6216]
(2) {4‑piperidine cap}-FAFKS-OMe (reading uncertain; also: Lys4: lysine mimetic with a pyrroline substituent) [UNC6262]
(3) FAFKS (N-terminal 4-piperidine cap; lysine mimetic with increased steric bulk on the lysine amine; C-terminal methyl ester) [UNC6254]
stdin: List items by IC50 in falling order. List labels; respect the requested ordering.
stdout: 2, 3, 1
(2: 700 nM, 3: 200 nM, 1: 90 nM)
